// Diameter (nm) lookup, one value per entry
# method.summary: Diameter and PDI from DLS measurements of mRNA nanoparticles with lipid amines
# Assay type: physicochemical
# experimental.context: CFTR mRNA nanoparticle with lipid amine
Structures can show the parent of a compound that is named as a salt.
The figure you give is taken to be in nm; do not add the unit.

Examples with their reported Diameter (nm) follow.
| compound | Diameter (nm) |
| --- | --- |
| CC(C)CCC[C@@H](C)[C@H]1CC[C@H]2[C@@H]3CC=C4C[C@@H](OC(=O)N(CCCCNCC(F)(F)CN)CC(F)(F)CN)CC[C@]4(C)[C@H]3CC[C@]12C [SA79, trihydrochloride] | 78.4 |
| CC(C)CCC[C@@H](C)[C@H]1CC[C@H]2[C@@H]3CC=C4C[C@@H](OC(=O)[C@H](C)N(CCCN)CCCCNCCCN)CC[C@]4(C)[C@H]3CC[C@]12C [SA73, trihydrochloride] | 92.8 |

Let us examine a further case.
GET /values?readout=Diameter (nm)&item= CC[C@H](CC[C@@H](C)[C@H]1CC[C@H]2[C@@H]3CC=C4C[C@@H](OC(=O)CCCC(=O)N(CCCCCCCC(C)(C)N)CCC(C)(C)N)CC[C@]4(C)[C@H]3CC[C@]12C)C(C)C [SA155, dihydrochloride]
71.1

---

# Test system: HeLa cells
# method.summary: Luciferase Protein Expression Assay in HeLa Cells
# Assay type: cell-based, Human
# experimental.context: LNPs encapsulating Luciferase mRNA, 25 ng per well, N=4 wells; 5 h serum-free then 24 h; ONE-Glo
# Procedure: For HeLa studies evaluating luciferase protein expression, PEG-DMG-2K dissolved in a 20 mM TRIS buffer (pH 7.5) is added to the neutralized intermediate nanoparticle solution at a ratio of 1:6, bringing the solution to the final molar ratios of IL1:DSPC:cholesterol:PEG-DMG-2K of 48.5:11.1:38.9:1.5%. This nanoparticle formulation is then modified with lipid amines. […]
Counter-ions that a name gives are not always drawn.
Quick rule for you: Average Relative Light Units ± Standard Deviation at 30000 Relative Light Units or higher means rule met, lower means rule not met.

Please review the following examples before continuing.
| compound | subject.of.test | class |
| --- | --- | --- |
| CC(C)CCC[C@@H](C)[C@H]1CC[C@H]2[C@@H]3CC=C4C[C@@H](SSCCC(=O)N(CCC(C)(C)N)CCC(C)(C)N)CC[C@]4(C)[C@H]3CC[C@]12C [SA174, dihydrochloride] | HeLa cells | rule met |
| CC(C)CCC[C@@H](C)[C@H]1CC[C@H]2[C@@H]3CC=C4C[C@@H](OC(=O)[C@H](CCCCN)NCCCCCCN)CC[C@]4(C)[C@H]3CC[C@]12C.Cl.Cl.Cl | HeLa cells | rule met |
| CC(C)CCC[C@@H](C)[C@H]1CC[C@H]2[C@@H]3CC=C4C[C@@H](OC(=O)N(CCCCNC(C)CC(C)N)C(C)CC(C)N)CC[C@]4(C)[C@H]3CC[C@]12C.Cl.Cl.Cl (some centres unmarked) | HeLa cells | rule met |
| CC[C@H](CC[C@@H](C)[C@H]1CC[C@H]2[C@@H]3CC=C4C[C@@H](OC(=O)CCCC(=O)N(CCCCCCCC(C)(C)N)CCC(C)(C)N)CC[C@]4(C)[C@H]3CC[C@]12C)C(C)C [SA155, dihydrochloride] | HeLa cells | rule met |
| CC[C@H](CC[C@@H](C)[C@H]1CC[C@H]2[C@@H]3CC=C4C[C@@H](OC(=O)N(CCCC(C)(C)N)CCC(C)(C)N)CC[C@]4(C)[C@H]3CC[C@]12C)C(C)C [SA149, dihydrochloride] | HeLa cells | rule met |

Confirm if Average Relative Light Units ± Standard Deviation reported for the compound `CC(C)CCC[C@@H](C)[C@H]1CC[C@H]2[C@@H]3CC=C4C[C@@H](OC(=O)N(CCCCNCC5(CN)CC5)CC5(CN)CC5)CC[C@]4(C)[C@H]3CC[C@]12C.Cl.Cl.Cl` is 30000 Relative Light Units or above.
rule met

Determine whether measured Average Relative Light Units ± Standard Deviation meets or exceeds 30000 Relative Light Units for CC(C)CCC[C@@H](C)[C@H]1CC[C@H]2[C@@H]3CC=C4C[C@@H](OC(=O)C(C)C(=O)N(CCCN)CCCCNCCCN)CC[C@]4(C)[C@H]3CC[C@]12C.Cl.Cl.Cl (some centres unmarked)
rule not met

Assess whether reported Average Relative Light Units ± Standard Deviation for CC(C)CCC[C@@H](C)[C@H]1CC[C@H]2[C@@H]3CC=C4C[C@@H](OC(=O)N(CCCN)CCCCOCCCN)CC[C@]4(C)[C@H]3CC[C@]12C [SA61, dihydrochloride] sits at 30000 Relative Light Units or higher.
rule not met

Is Average Relative Light Units ± Standard Deviation for CC(C)CCC[C@@H](C)[C@H]1CC[C@H]2[C@@H]3CC=C4C[C@@H](OC(=O)N(CCCCNC(C)CCN)C(C)CCN)CC[C@]4(C)[C@H]3CC[C@]12C (some centres unmarked) [SA74, trihydrochloride] at or above 30000 Relative Light Units?
rule not met

Average Relative Light Units ± Standard Deviation >= 30000 Relative Light Units for CC(C)CCC[C@@H](C)[C@H]1CC[C@H]2[C@@H]3CC=C4C[C@@H](OC(=O)CCCC(=O)N(CCCCCCCC(C)N)CCC(C)N)CC[C@]4(C)[C@H]3CC[C@]12C (some centres unmarked) [SA142, dihydrochloride] ?
rule met

---

# method.summary: Diameter and PDI from DLS measurements of mRNA nanoparticles with lipid amines
# Type: physicochemical
# experimental.context: Luciferase mRNA nanoparticle modified with lipid amine
Counter-ions that a name gives are not always drawn.
Below: a set of entries, each annotated with reported PDI.

Below: 5 compounds and their reported PDI.
| compound | PDI |
| --- | --- |
| CC[C@H](CC[C@@H](C)[C@H]1CC[C@H]2[C@@H]3CC=C4C[C@@H](OC(=O)N(CCCCCCN)CCCCCCN)CC[C@]4(C)[C@H]3CC[C@]12C)C(C)C [SA82, dihydrochloride] | 0.11 |
| CC[C@H](CC[C@@H](C)[C@H]1CC[C@H]2[C@@H]3CC=C4C[C@@H](OC(=O)CCCC(=O)N(CCCCNCCC(N)(CC)CC)CCC(N)(CC)CC)CC[C@]4(C)[C@H]3CC[C@]12C)C(C)C [SA182, trihydrochloride] | 0.14 |
| CC(C)CCC[C@@H](C)[C@H]1CC[C@H]2[C@@H]3CC=C4C[C@@H](OC(=O)N(CCCCNCC(F)(F)CN)CC(F)(F)CN)CC[C@]4(C)[C@H]3CC[C@]12C [SA79, trihydrochloride] | 0.18 |
| CC(C)CCC[C@@H](C)[C@H]1CC[C@H]2[C@@H]3CC=C4C[C@@H](OC(=O)N(CCCCCCN)CCCCCCN)CC[C@]4(C)[C@H]3CC[C@]12C [SA81, dihydrochloride] | 0.12 |
| CC(C)CCC[C@@H](C)[C@H]1CC[C@H]2[C@@H]3CC=C4C[C@@H](SSCCC(=O)N(CCCC(C)(C)N)CCC(C)(C)N)CC[C@]4(C)[C@H]3CC[C@]12C [SA145, dihydrochloride] | 0.17 |

I am curious: what PDI value has been reported for CC(C)CCC[C@@H](C)[C@H]1CC[C@H]2[C@@H]3CC=C4C[C@@H](OC(=O)CCCC(=O)N(CCCCNCCC(C)N)CCC(C)N)CC[C@]4(C)[C@H]3CC[C@]12C.Cl.Cl.Cl (stereo partly drawn) ?
0.19

For the compound CC[C@H](CC[C@@H](C)[C@H]1CC[C@H]2[C@@H]3CC=C4C[C@@H](OC(=O)N(CCCN)CCCCCCCCCCN)CC[C@]4(C)[C@H]3CC[C@]12C)C(C)C [SA96, dihydrochloride] , what PDI is on record?
0.15

Query: PDI; subject: CC[C@H](CC[C@@H](C)[C@H]1CC[C@H]2[C@@H]3CC=C4C[C@@H](OC(=O)N(CCCCNCC(F)(F)CN)CC(F)(F)CN)CC[C@]4(C)[C@H]3CC[C@]12C)C(C)C [SA116, trihydrochloride]
0.20

Fill in: PDI of CC(C)CCC[C@@H](C)[C@H]1CC[C@H]2[C@@H]3CC=C4C[C@@H](OC(=O)N(CCC(C)(C)N)CCC(C)(C)N)CC[C@]4(C)[C@H]3CC[C@]12C [SA158, dihydrochloride] is ___
0.28

---

# method.summary: Diameter and PDI from DLS measurements of mRNA nanoparticles with lipid amines
# Format: physicochemical
# experimental.context: Luciferase mRNA nanoparticle modified with lipid amine
Counter-ions that a name gives are not always drawn.
Consider the following compounds and their measured PDI readings.
Please respond with just the number, no unit label.

Worked examples follow.
| compound | measured |
| --- | --- |
| CC[C@H](CC[C@@H](C)[C@H]1CC[C@H]2[C@@H]3CC=C4C[C@@H](OC(=O)N(CCCN)CCCCCCCCN)CC[C@]4(C)[C@H]3CC[C@]12C)C(C)C [SA69, dihydrochloride] | 0.16 |
| CC(C)CCC[C@@H](C)[C@H]1CC[C@H]2[C@@H]3CC=C4C[C@@H](OC(=O)N(CCCN)CCCCCCCCCCN)CC[C@]4(C)[C@H]3CC[C@]12C [SA95, dihydrochloride] | 0.20 |
| CC(C)CCC[C@@H](C)[C@H]1CC[C@H]2[C@@H]3CC=C4C[C@@H](OC(=O)N(CCCCNCCC(C)(C)N)CCC(C)(C)N)CC[C@]4(C)[C@H]3CC[C@]12C [SA78, trihydrochloride] | 0.20 |

# get_value(readout='PDI', item= CC(C)CCC[C@@H](C)[C@H]1CC[C@H]2[C@@H]3CC=C4C[C@@H](OC(=O)CN(CCCCCCCCN)C(=O)CCCCCN)CC[C@]4(C)[C@H]3CC[C@]12C [SA123, dihydrochloride] )
0.14

What value of PDI has been recorded for this entry: CC[C@H](CC[C@@H](C)[C@H]1CC[C@H]2[C@@H]3CC=C4C[C@@H](OC(=O)CCC(=O)N(CCC(C)N)CCC(C)N)CC[C@]4(C)[C@H]3CC[C@]12C)C(C)C (some centres unmarked) [SA168, dihydrochloride]
0.16

Which measured PDI value corresponds to CC[C@H](CC[C@@H](C)[C@H]1CC[C@H]2[C@@H]3CC=C4C[C@@H](SSCCC(=O)N(CCCCCCCC(C)(C)N)CCC(C)(C)N)CC[C@]4(C)[C@H]3CC[C@]12C)C(C)C [SA179, dihydrochloride] ?
0.17

Query: PDI; subject: CC[C@H](CC[C@@H](C)[C@H]1CC[C@H]2[C@@H]3CC=C4C[C@@H](OC(=O)N(CCCCNCCC(N)(CC)CC)CCC(N)(CC)CC)CC[C@]4(C)[C@H]3CC[C@]12C)C(C)C [SA183, trihydrochloride]
0.21

Given the entry CC[C@H](CC[C@@H](C)[C@H]1CC[C@H]2[C@@H]3CC=C4C[C@@H](SSCCC(=O)N(CCCCNCCC(N)(CC)CC)CCC(N)(CC)CC)CC[C@]4(C)[C@H]3CC[C@]12C)C(C)C [SA181, trihydrochloride] , report its measured PDI.
0.16
